Experimental details: S. cerevisiae growth modulation with rapamycin, primary screen, strain BY4716, OD600, 96 h (AID 1091); also: test concentration not given here
Details: higher = more signal, called active from +8 up or from −8 down
Rule: Y for z-score not less than 1, N for anything less.

Inquiry: Check the entry `[N-]=[N+]=Nc1ccccc1C[C@]1(C(=O)NCCN2CCOCC2)N=C(c2ccc(OCCCO)cc2)O[C@H]1c1ccccc1` : does z-score equal or exceed 1?
Reply text: N

Inquiry: # check: z-score of `CO[C@H]1O[C@H](CO)[C@@H](OC(=O)Nc2ccc3c(c2)OCO3)[C@H](OC(=O)Nc2ccccc2)[C@H]1OC(=O)Nc1ccccc1` is greater than or equal to 1
Reply text: Y

Inquiry: Does `C[C@]1(C(=O)NCc2ccccc2)c2ccccc2C(=O)N(Cc2ccc(OC(F)(F)F)cc2)[C@H]1c1ccc(CO)cc1` have a reported z-score of at least 1?
Reply text: N

Inquiry: Please check the record `COC(=O)C(CC#Cc1ccc2c(c1)[C@]1(C(=O)N2)[C@H](C(=O)NC[C@H](O)c2ccccc2)[C@H]2C(=O)O[C@H](c3ccccc3)[C@H](c3ccccc3)N2[C@@H]1c1ccc(OCCO)cc1)C(=O)OC` and state if its z-score is at or above 1.
Reply text: Y

Inquiry: Confirm if z-score reported for the compound `CC1=C2[C@@H](CCc3ccccc3)OB(O)C[C@@H]2n2c(=O)n(-c3ccccc3)c(=O)n2C1` is 1 or above.
Reply text: N

Inquiry: Threshold query (z-score >= 1) on `CCOC(=O)C1=C[C@@H](CC)N(S(=O)(=O)c2ccc(C)cc2)[C@H]1c1ccccc1`
Reply text: N

Inquiry: Check if z-score >= 1 (inclusive). Item: `CCCN1C(=O)[C@@]2(CCC(=O)OC(C)(C)C)N=C(c3ccc(OCCCO)cc3)O[C@H]2c2ccccc21`
Reply text: Y

Inquiry: Does `Cc1ccc([C@H]2C(C(=O)O)=C[C@@H](C)N2S(=O)(=O)c2ccc(C)cc2)cc1` have a reported z-score of at least 1?
Reply text: N

Inquiry: z-score >= 1 for `COC(=O)[C@@]1(Cc2ccccc2N=[N+]=[N-])COC(c2ccc(OCCCO)cc2)=N1` ?
Reply text: N

Inquiry: // inclusive: z-score at least 1? input: `O=C1O[C@@H](c2ccccc2)[C@@H](c2ccccc2)N2[C@@H](c3ccc(O)cc3)[C@]3(C(=O)Nc4ccc(C#CC5(O)CCCCCC5)cc43)[C@@H](C(=O)N3CCCCCCC3)[C@H]12`
Reply text: Y

Inquiry: # check: z-score of `COc1ccc(C#Cc2ccc3c(c2)[C@]2(C(=O)N3)[C@H](c3ccc(O)cc3)N3[C@H](c4ccccc4)[C@H](c4ccccc4)OC(=O)[C@H]3[C@@H]2C(=O)NC[C@H](O)c2ccccc2)cc1` is greater than or equal to 1
Reply text: Y

Inquiry: Hi team, for `C=CCOC(=O)[C@@H]1[C@H]2C(=O)O[C@H](c3ccccc3)[C@H](c3ccccc3)N2[C@H](c2ccc(OCCOC(=O)[C@@H]3C[C@@H]4C(=O)NCC(=O)N4[C@@H]3c3cccc(OCCO)c3)cc2)[C@@]12C(=O)Nc1ccc(I)cc12` , is the recorded z-score at or above 1?
Reply text: Y

Inquiry: Reported z-score at or above 1? `[N-]=[N+]=Nc1ccccc1[C@@H]1OC(c2ccc(OCCCO)cc2)=N[C@]1(CCS(=O)(=O)c1ccccc1)C(=O)N1CCOCC1`
Reply text: Y

Inquiry: Would you say `O=C(O)[C@@]1(Cc2ccccc2)N=C(c2ccc(OCCCO)cc2)O[C@H]1c1ccccc1` shows z-score at minimum 1?
Reply text: N

Inquiry: Hello, I need to know if C=CC(COC(C)=O)NS(=O)(=O)c1ccc(Br)cc1 (stereo not drawn) has measured z-score not below 1. Thanks!
Reply text: N

Inquiry: # check: z-score of `CCOC(=O)C1=CC[C@@H](c2ccccc2Cl)N(S(=O)(=O)c2ccc(C)cc2)C1` is greater than or equal to 1
Reply text: N

Inquiry: Is z-score at least 1? Consider CS(=O)(=O)CCOC(=O)C1=CC(c2ccc(CO)cc2)=CC(C2CC2)N(Cc2cc3c(cc2Br)OCO3)C=C1C(=O)OCCS(C)(=O)=O (stereo not drawn)
Reply text: N

Inquiry: Hi team, for COc1ccc(C(O)C2C=CC3C(=O)NC(=O)C3N2Nc2ccccn2)cc1OCc1ccccc1 (stereo not drawn) , is the recorded z-score at or above 1?
Reply text: N

Inquiry: Threshold query (z-score >= 1) on `CCCCC=C[C@@H](NC(=O)c1ccco1)c1ccccc1`
Reply text: Y

Inquiry: Given the entry `COc1ccc(C(=O)Nc2cccc(CN3C(=O)[C@]4(O[C@H](CC(=O)N5CCC[C@H]5CO)[C@@H]([Si](C)(C)c5ccc(OC)cc5)[C@@H]4C)c4ccccc43)c2)cc1` , answer whether its z-score meets or surpasses 1.
Reply text: N

Inquiry: Please check the record `COC(=O)[C@@]1(Cc2ccc(OC)cc2)[C@H]2c3cc(C(=O)N(C)C)n(Cc4c(OC)[nH]cc(C)c4=O)c3C[C@H]2CN1C(=O)c1ccccc1` and state if its z-score is at or above 1.
Reply text: N

Inquiry: Does the reported z-score for `Cc1ccc(S[C@]2(C(=O)NCC(C)C)CC(=O)N(Cc3ccccc3Cl)[C@@H]2c2ccc(CO)cc2)cc1` fall at or above the 1 mark?
Reply text: N

Inquiry: z-score >= 1 for `O=C1N(CCS(=O)(=O)c2ccccc2)c2ccccc2C[C@@]12COC(c1ccc(OCCCO)cc1)=N2` ?
Reply text: Y

Inquiry: # bool: z-score of `COc1ccc(CCNC(=O)[C@@]2(c3ccc([N+](=O)[O-])cc3)CC(=O)N(CC34CC5CC(CC(C5)C3)C4)[C@@H]2c2ccc(CO)cc2)cc1` >= 1
Reply text: Y

Inquiry: Check if z-score >= 1 (inclusive). Item: `O=C1C[C@]2(c3ccc([N+](=O)[O-])cc3)C(=O)N(CC(F)(F)F)c3cc(CO)ccc3[C@H]2N1CC12CC3CC(CC(C3)C1)C2`
Reply text: N

Inquiry: Given the entry `CCOC(=O)C1=CC[C@@H](c2ccccc2)N(S(=O)(=O)c2ccc(C)cc2)[C@H]1C(=O)OCC` , answer whether its z-score meets or surpasses 1.
Reply text: Y

Inquiry: Say whether `O=C1O[C@H](c2ccccc2)[C@H](c2ccccc2)N2[C@H]1[C@@H](C(=O)O)[C@]1(C(=O)Nc3ccc(C#CC4=CCCCC4)cc31)[C@H]2c1ccc(OCCO)cc1` shows z-score of 1 or more.
Reply text: N

Inquiry: Answer whether z-score of `COc1ccc(CCNC(=O)[C@@H]2c3ccccc3C(=O)N(Cc3ccc(OC(F)(F)F)cc3)[C@H]2c2ccc(CO)cc2)cc1` is greater than or equal to 1.
Reply text: N

----------
Experimental details: PSAC antagonists in infected red cells, primary screen, cell-based, P. falciparum Indochina, OD700, 1 h (AID 1154)
Details: P. falciparum Indochina infected RBC osmotic lysis, called active from +8 up or from −8 down
Calls of active or inactive are those of the source.
# valid calls are Yes for active, No for inactive; nothing else

Inquiry: Short answer needed: outcome of this test for COC(=O)c1ccc(C(O)C2C=CC3C(=O)N(c4ccccc4)C(=O)C3N2Nc2ccc(C#N)cc2)o1 (centres undefined) ?
Reply text: No

Inquiry: Given `[N-]=[N+]=NCc1ccccc1[C@H]1OC(c2ccc(OCCCO)cc2)=N[C@@]1(CCS(=O)(=O)c1ccccc1)C(=O)N1CCOCC1` , state the outcome it received in this test.
Reply text: Yes

Inquiry: Identify the outcome logged in this assay for the molecule shown: `CC(C)CNC(=O)[C@@]1(c2ccc([N+](=O)[O-])cc2)CC(=O)N(CC23CC4CC(CC(C4)C2)C3)[C@@H]1c1ccc(CO)cc1`
Reply text: No

Inquiry: Please indicate how the test categorized N#Cc1ccc(NN2C(C(O)c3ccc([N+](=O)[O-])cc3)C=CC3C(=O)N(c4ccccc4)C(=O)C32)cc1 (centres undefined) .
Reply text: Yes

----------
System: Human papillomavirus type 1a protein E7 (residues 44-93)
Experimental details: HPV1a E7 fragment binders on microarrays, primary screen, biochemical, small-molecule microarray, residues 44-93, 635 nm fluorescence (AID 1108);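 also: E7 fragment applied at 1 µg/mL in TBST for 1 h at 4 C; score combines spot fluorescence with its signal to noise ratio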
Details: small-molecule microarray binding, fluorescence 635 nm; higher = more signal
Measured parameter: composite z-score

Inquiry: Need composite z-score of C=CC(COC(C)=O)NS(=O)(=O)c1ccc(Br)cc1 (stereo unspecified) , thanks.
Reply text: 0.62

Inquiry: Name the reported composite z-score value associated with the compound `COCCOC(=O)N1C(=O)[C@@]2(c3ccccc31)[C@H](c1ccc(O)cc1)N1[C@H](c3ccccc3)[C@H](c3ccccc3)OC(=O)[C@H]1[C@@H]2C(=O)N1CCc2cc(OC)c(OC)cc2C1`
Reply text: 0.607

Inquiry: # lookup: composite z-score of `COc1ccc(C(=O)Nc2cccc(CN3C(=O)[C@@]4(O[C@@H](CCn5cc(CCO)nn5)[C@H]([Si](C)(C)c5ccc(OC)cc5)[C@H]4C)c4ccccc43)c2)cc1`
Reply text: 1.37

Inquiry: Item under review: `[N-]=[N+]=NCc1ccccc1C[C@]1(C(=O)NCCN2CCOCC2)N=C(c2ccc(OCCCO)cc2)O[C@H]1c1ccccc1N=[N+]=[N-]` . Reported composite z-score?
Reply text: 0.927

Inquiry: Query (compound): `C=CCN1C(=O)[C@]2(O[C@H](CCO)[C@@H]([Si](C)(C)c3ccc(OC)cc3)[C@@H]2C)c2cc(NC(=O)[C@H](C)O)ccc21` ; field requested: composite z-score
Reply text: 0.942

Inquiry: May I ask what composite z-score has been recorded for CCCCC(O)C1C=CC2C(=O)N(C3CCCCC3)C(=O)C2N1Nc1ccc(OC)cc1 (stereo unspecified) ?
Reply text: 1.4

Inquiry: Report composite z-score for CC1CC/C=C\[C@H]2OC34C=CCN(Cc5ccccc5)C(=O)[C@H]3N(CCCCCO)C(=O)[C@@H]4C2C(=O)O1 (stereo partly specified) please.
Reply text: -0.853

Inquiry: Look up composite z-score: `O=c1cccc(CCc2ccccc2)o1`
Reply text: 0.744

Inquiry: Endpoint output: composite z-score of `CCCN1C(=O)[C@@]2(CCC(=O)OC(C)(C)C)N=C(c3ccc(OCCCO)cc3)O[C@H]2c2ccccc21` . Value?
Reply text: 1.11

Inquiry: Which composite z-score is reported for this compound? O=C(OCCF)C1=CCC(c2cccc(Cl)c2)O1 (stereo unspecified)
Reply text: 0.628

Inquiry: For `Cc1ccc(S[C@]2(C(=O)NCCN3CCOCC3)CC(=O)N(Cc3cc(C(F)(F)F)cc(C(F)(F)F)c3)[C@@H]2c2ccc(CO)cc2I)cc1` , what is its reported composite z-score?
Reply text: 0.105

Inquiry: Quick one: composite z-score for `COc1ccc([Si](C)(C)[C@@H]2[C@@H](CC(=O)N(CCO)Cc3ccccc3)O[C@]3(C(=O)N(C)c4ccccc43)[C@H]2C)cc1` ?
Reply text: 0.906

Inquiry: So what's the measured composite z-score for this one? `Cc1ccc(S[C@]2(C(=O)NCC(C)C)CC(=O)N(Cc3ccccc3)[C@@H]2c2ccc(CO)cc2I)cc1`
Reply text: 1.29

Inquiry: Which value of composite z-score has been reported for `COC(=O)C[C@H]1O[C@]2(C(=O)N(Cc3ccccc3)c3ccc(NC(C)=O)cc32)[C@@H](C)[C@@H]1[Si](C)(C)c1ccc(OC)cc1` in the records?
Reply text: 0.866

Inquiry: Need composite z-score, item `NCCCCCNC(=O)[C@H]1C[C@H]2C(=O)NCC(=O)N2[C@H]1c1cccc(OCCO)c1`
Reply text: 1.34

Inquiry: Consider the compound `CC(C)Cc1ccc(CN2CC[C@@H](NS(=O)(=O)c3ccccc3)C2)cc1` and give its measured composite z-score.
Reply text: 0.429

Inquiry: Need composite z-score of COc1ccc(C(O)C2C=CC3C(=O)N(c4ccccc4)C(=O)C3N2Nc2ccc([N+](=O)[O-])cc2)cc1OCc1ccccc1 (stereo unspecified) , thanks.
Reply text: 0.664

Inquiry: I have this compound here, `O=C1[C@]2(CO)C=C(Br)[C@@H](C[C@@H]2c2ccccc2)[C@@]12CO2` , and I need its recorded composite z-score.
Reply text: -0.728

Inquiry: Item `C=C(C(=O)CC[C@H](OC(C)=O)c1ccc(OCCO)cc1)C(C)C` has what recorded composite z-score?
Reply text: -0.268

Inquiry: Form field: reported composite z-score of `CC(C)C(=C=CC[C@H](O)c1ccccc1OCCO)C[C@H](O)c1ccccn1`
Reply text: 0.143

Inquiry: Look at this compound and give its reported composite z-score. `CCCCC=C[C@@H](NC(=O)c1ccc(C(=O)OC)cc1)c1ccccc1`
Reply text: 1.1

Inquiry: Requested read-out: composite z-score. Entry: `COCCOC(=O)N1C(=O)[C@@]2(c3cc(C#CCCO)ccc31)[C@H](c1ccc(O)cc1)N1[C@H](c3ccccc3)[C@H](c3ccccc3)OC(=O)[C@H]1[C@@H]2C(N)=O`
Reply text: -0.0809

Inquiry: What value of composite z-score has been recorded for this entry: `C=CCNC(=O)[C@@H]1[C@H]2C(=O)O[C@H](c3ccccc3)[C@H](c3ccccc3)N2[C@H](c2ccc(O)cc2)[C@@]12C(=O)N(C(=O)OCCOC)c1ccccc12`
Reply text: 1.2

Inquiry: Quick one: composite z-score for `CC(C)CNC(=O)[C@@]1(c2ccc([N+](=O)[O-])cc2)CC(=O)N(CC23CC4CC(CC(C4)C2)C3)[C@@H]1c1ccc(CO)cc1I` ?
Reply text: 1.39

Inquiry: Can you share its composite z-score? I mean this compound: `O=C1O[C@H](c2ccccc2)[C@H](c2ccccc2)N2[C@H]1[C@@H](C(=O)O)[C@]1(C(=O)Nc3ccc(C#CC4=CCCCC4)cc31)[C@H]2c1ccc(OCCO)cc1`
Reply text: 1.22

Inquiry: Could you tell me which composite z-score is on file for `O=C1N(CCS(=O)(=O)c2ccccc2)c2ccccc2C[C@@]12COC(c1ccc(OCCCO)cc1)=N2` ?
Reply text: 1.09

Inquiry: Given the entry CC(C)c1ccc(NN2C(C(O)c3cccc(O)c3)C=CC3C(=O)N(c4ccccc4)C(=O)C32)cc1 (stereo unspecified) , report its measured composite z-score.
Reply text: 1.43

Inquiry: Consider the compound `O=C1C[C@]2(c3ccc([N+](=O)[O-])cc3)C(=O)N(CC(F)(F)F)c3cc(CO)ccc3[C@H]2N1CC12CC3CC(CC(C3)C1)C2` and give its measured composite z-score.
Reply text: 0.193

Inquiry: Give its composite z-score value. Item: COC(=O)c1ccc(C(O)C2C=CC3C(=O)N(c4ccccc4)C(=O)C3N2Nc2ccc(C#N)cc2)o1 (stereo unspecified)
Reply text: 1.18

Inquiry: Please look up its composite z-score: `COCCOC(=O)N1C(=O)[C@@]2(c3cc(C#CCNC(N)=O)ccc31)[C@H](c1ccc(O)cc1)N1[C@H](c3ccccc3)[C@H](c3ccccc3)OC(=O)[C@H]1[C@@H]2C(=O)NC[C@H](O)c1ccccc1`
Reply text: 0.83

Inquiry: I have this compound here, `CN(C)CCCCCCNC(=O)[C@H]1C[C@H]2C(=O)N[C@@H](CCCCN)C(=O)N2[C@H]1c1ccc(O)cc1` , and I need its recorded composite z-score.
Reply text: 1.48
